Target: Pdr5 (Saccharomyces cerevisiae, UniProt P33302, A666G)
Sequence (P33302 whole entry A666G): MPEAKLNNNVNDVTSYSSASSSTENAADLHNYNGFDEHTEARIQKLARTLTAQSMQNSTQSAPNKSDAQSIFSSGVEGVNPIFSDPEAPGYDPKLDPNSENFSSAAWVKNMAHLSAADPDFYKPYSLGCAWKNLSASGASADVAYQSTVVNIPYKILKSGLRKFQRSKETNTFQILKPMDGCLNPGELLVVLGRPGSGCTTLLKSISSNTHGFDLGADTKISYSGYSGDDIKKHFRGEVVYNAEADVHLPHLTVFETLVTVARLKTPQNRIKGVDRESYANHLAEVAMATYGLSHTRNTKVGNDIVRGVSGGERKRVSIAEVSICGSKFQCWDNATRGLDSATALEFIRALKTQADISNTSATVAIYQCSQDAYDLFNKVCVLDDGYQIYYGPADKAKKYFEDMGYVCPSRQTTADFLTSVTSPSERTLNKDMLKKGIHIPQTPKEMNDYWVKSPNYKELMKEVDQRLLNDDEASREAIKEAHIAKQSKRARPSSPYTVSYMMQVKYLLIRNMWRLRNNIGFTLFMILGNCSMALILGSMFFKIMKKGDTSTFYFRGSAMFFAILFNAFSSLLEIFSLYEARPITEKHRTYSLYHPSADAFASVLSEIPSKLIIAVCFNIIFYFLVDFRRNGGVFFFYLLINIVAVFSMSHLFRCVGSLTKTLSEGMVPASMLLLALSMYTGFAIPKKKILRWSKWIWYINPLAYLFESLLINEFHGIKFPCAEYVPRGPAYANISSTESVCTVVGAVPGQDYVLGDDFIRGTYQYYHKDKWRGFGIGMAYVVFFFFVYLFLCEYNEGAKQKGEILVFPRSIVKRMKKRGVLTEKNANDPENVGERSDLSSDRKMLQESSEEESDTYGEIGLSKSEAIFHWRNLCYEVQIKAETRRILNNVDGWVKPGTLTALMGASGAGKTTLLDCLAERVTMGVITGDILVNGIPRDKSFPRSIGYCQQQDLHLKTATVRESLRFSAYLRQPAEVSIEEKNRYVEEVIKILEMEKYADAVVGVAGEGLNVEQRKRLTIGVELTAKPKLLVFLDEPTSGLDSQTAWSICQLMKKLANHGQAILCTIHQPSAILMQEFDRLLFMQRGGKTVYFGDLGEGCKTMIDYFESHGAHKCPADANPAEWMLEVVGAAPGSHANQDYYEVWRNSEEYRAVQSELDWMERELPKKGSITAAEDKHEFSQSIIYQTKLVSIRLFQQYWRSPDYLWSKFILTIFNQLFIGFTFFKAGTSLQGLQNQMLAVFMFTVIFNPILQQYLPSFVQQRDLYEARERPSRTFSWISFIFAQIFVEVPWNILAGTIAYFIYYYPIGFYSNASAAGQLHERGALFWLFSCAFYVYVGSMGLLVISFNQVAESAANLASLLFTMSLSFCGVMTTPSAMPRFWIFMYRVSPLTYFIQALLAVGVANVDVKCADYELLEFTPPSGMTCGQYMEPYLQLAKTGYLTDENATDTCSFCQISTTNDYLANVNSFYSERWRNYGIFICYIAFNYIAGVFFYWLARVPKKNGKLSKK
Test: inhibition of R6G transport in whole cells
Counter-ions that a name gives are not always drawn.
Reported Property: IC50

Qu. Reported IC50 for C=CCOC(Cn1ccnc1)c1ccc(Cl)cc1Cl (stereo not shown) [imazalil sulfate] : what is it?
Ans. ~100 µM

Ref: paper PMC6800772
